Test: Metabolic stability in human liver microsomes
Assay type: in vitro ADME
Conditions: both sexes, human, liver microsomes, pH 7.4, human liver microsomes, 2 μM, 37 °C, with NADPH; 25 min; read-out: % Remaining, Mean of 2
property_measured: remaining at 25 min, 2 µM (%)

| compound | property_measured | experimental_result |
| --- | --- | --- |
| O=C(NC1CCN(CCCCC2(C(=O)NCC(F)(F)F)c3ccccc3-c3ccccc32)CC1)[C@@H]1[C@@H]2CC[C@@]1(c1ccc(C(F)(F)F)cc1)C2 (relative stereo) | remaining at 25 min, 2 µM | 21 |

a: O=C(N[C@@H]1[C@H]2C[C@]1(c1ccc(Cl)cc1)CO2)c1cccnc1Cl (relative stereo)
b: Cn1cc(C(=O)N[C@@H]2[C@@H]3CC[C@@]2(c2cc(F)c(F)c(F)c2)C3)c(C(F)F)n1 (relative stereo)
Field: entry with larger remaining at 25 min, 2 µM (options a / b ). Write down the label of the entry you select.
a
(a: 107%, b: 57%)

* * *

Test: Metabolic stability in human liver microsomes
Type: in vitro ADME
Conditions: both sexes, pH 7.4; human liver microsomes, no NADPH cofactor; 40 min; ** instability partially or completely not determined by CYP450 activity; read-out: % Remaining without cofactor, Mean of 2
property_measured: remaining at 40 min, 2 µM (%)

Previously resolved entries follow.
| compound | property_measured | unit_abbreviation | experimental_result |
| --- | --- | --- | --- |
| O=C(O)[C@@H]1[C@@H]2CC[C@@]1(C(=O)Nc1ccc(S(=O)(=O)Nc3nccs3)cc1)C2 (relative stereo) [Compound 32] | remaining at 40 min, 2 µM | % | 89 |
| Cn1cc(C(=O)N[C@@H]2[C@H]3C[C@]2(c2cc(F)c(F)c(F)c2)CO3)c(C(F)F)n1 (relative stereo) [Compound 29] | remaining at 40 min, 2 µM | % | 89 |
| O=C(NC1CCN(CCCCC2(C(=O)NCC(F)(F)F)c3ccccc3-c3ccccc32)CC1)c1ccccc1-c1ccc(C(F)(F)F)cc1 [Lomitapide, reference compound] | remaining at 40 min, 2 µM | % | 88 |

1: O=C(N[C@@H]1[C@H]2C[C@]1(c1ccc(Cl)cc1)CO2)c1cccnc1Cl (relative stereo) [Compound 31]
2: O=C(O)c1ccccc1C(=O)Nc1ccc(S(=O)(=O)Nc2nccs2)cc1 [Phthalylsulfathiazole, reference compound]
Field: entry with larger remaining at 40 min, 2 µM (options 1 / 2 ). Write down the label of the entry you select.
2
(2: 124%, 1: 85%)

* * *

Assay: Metabolic stability in human liver microsomes
Assay type: in vitro ADME
Details: both sexes, human, microsomes, pH 7.4, % Remaining, Mean of 2
property_measured: remaining at 25 min, 2 µM (%)
Report only the number, with the unit % understood.

| compound | property_measured | experimental_result |
| --- | --- | --- |
| Cn1cc(C(=O)Nc2ccccc2-c2cc(F)c(F)c(F)c2)c(C(F)F)n1 [Fluxapyroxad, reference compound] | remaining at 25 min, 2 µM | 73 |

What remaining at 25 min, 2 µM value was documented for this compound, O=C(Nc1ccccc1-c1ccc(Cl)cc1)c1cccnc1Cl [Boscalid, reference compound] ?
75

* * *

Assay: Metabolic stability in human liver microsomes
Assay type: in vitro ADME
Details: both sexes, human, liver microsomes, pH 7.4, human liver microsomes, 2 μM, 37 °C, with NADPH; 25 min; read-out: % Remaining, Mean of 2
property_measured: remaining at 25 min, 2 µM (%)

| molecule | remaining at 25 min, 2 µM / % |
| --- | --- |
| O=C(NC1CCN(CCCCC2(C(=O)NCC(F)(F)F)c3ccccc3-c3ccccc32)CC1)[C@@H]1[C@H]2C[C@]1(c1ccc(C(F)(F)F)cc1)CO2 (relative stereo) [Compound 35] | 36 |
| O=C(O)c1ccccc1C(=O)Nc1ccc(S(=O)(=O)Nc2nccs2)cc1 [Phthalylsulfathiazole, reference compound] | 101 |

I: Cn1cc(C(=O)N[C@@H]2[C@H]3C[C@]2(c2cc(F)c(F)c(F)c2)CO3)c(C(F)F)n1 (relative stereo) [Compound 29]
II: O=C(NC1CCN(CCCCC2(C(=O)NCC(F)(F)F)c3ccccc3-c3ccccc32)CC1)c1ccccc1-c1ccc(C(F)(F)F)cc1 [Lomitapide, reference compound]
Would you mind telling me which has the lower recorded remaining at 25 min, 2 µM between I and II ? Write down the label of the entry you select.
II

* * *

Assay: physchem
Type: physicochemical
Settings: pH 7.4, LogD, pH 7.4, incubation 3
property_measured: logD at 1 h

| compound | logD at 1 h |
| --- | --- |
| O=C(N[C@@H]1[C@@H]2CC[C@@]1(c1ccc(Cl)cc1)C2)c1cccnc1Cl (relative stereo) | 2.79 |

P: O=C(O)C1C2CC1(C(=O)Nc1ccc(S(=O)(=O)Nc3nccs3)cc1)CO2 (stereo not shown)
Q: COC(=O)Nc1nc2ccc(C(=O)c3ccccc3)cc2[nH]1 [Mebendazole, reference compound]
Field: entry with larger logD at 1 h (options P / Q ). Write down the label of the entry you select.
Q
(Q: 3.12, P: -0.26)

I: Cn1cc(C(=O)N[C@@H]2[C@@H]3CC[C@@]2(c2cc(F)c(F)c(F)c2)C3)c(C(F)F)n1 (relative stereo)
II: O=C(O)c1ccccc1C(=O)Nc1ccc(S(=O)(=O)Nc2nccs2)cc1 [Phthalylsulfathiazole, reference compound]
Would you mind telling me which has the lower recorded logD at 1 h between I and II ? Write down the label of the entry you select.
II

* * *

Experiment: Metabolic stability in human liver microsomes
Format: in vitro ADME
Conditions: both sexes, human, liver microsomes, pH 7.4, human liver microsomes, 2 μM, 37 °C, with NADPH; 7 min
property_measured: remaining at […], 2 µM (%)

| compound | experimental_result |
| --- | --- |
| O=C(NC1CCN(CCCCC2(C(=O)NCC(F)(F)F)c3ccccc3-c3ccccc32)CC1)c1ccccc1-c1ccc(C(F)(F)F)cc1 [Lomitapide, reference compound] | 97 |
| O=C(O)c1ccccc1C(=O)Nc1ccc(S(=O)(=O)Nc2nccs2)cc1 [Phthalylsulfathiazole, reference compound] | 97 |

* * *

Assay: Metabolic stability in human liver microsomes
Type: in vitro ADME
Details: both sexes, human, microsomes, pH 7.4, % Remaining without cofactor, Mean of 2
# remaining at 40 min, 2 µM values compiled below
Report only the number, with the unit % understood.

What remaining at 40 min, 2 µM value was documented for this compound, O=C(Nc1ccccc1-c1ccc(Cl)cc1)c1cccnc1Cl [Boscalid, reference compound] ?
59

What remaining at 40 min, 2 µM value was documented for this compound, Cn1cc(C(=O)Nc2ccccc2-c2cc(F)c(F)c(F)c2)c(C(F)F)n1 [Fluxapyroxad, reference compound] ?
79

* * *

Experiment: physchem
Type: physicochemical
Conditions: Table S2; n-octanol/PBS pH 7.4; incubation 1
property_measured: D (partition ratio), incubation 1

| molecule | D (partition ratio), incubation 1 |
| --- | --- |
| Cn1cc(C(=O)N[C@@H]2[C@H]3C[C@]2(c2cc(F)c(F)c(F)c2)CO3)c(C(F)F)n1 (relative stereo) [Compound 29] | 5.70E+02 |

1: O=C(N[C@@H]1[C@@H]2CC[C@@]1(c1ccc(Cl)cc1)C2)c1cccnc1Cl (relative stereo) [Compound 30]
2: O=C(NC1CCN(CCCCC2(C(=O)NCC(F)(F)F)c3ccccc3-c3ccccc32)CC1)[C@@H]1[C@@H]2CC[C@@]1(c1ccc(C(F)(F)F)cc1)C2 (relative stereo) [Compound 34]
3: O=C(O)c1ccccc1C(=O)Nc1ccc(S(=O)(=O)Nc2nccs2)cc1 [Phthalylsulfathiazole, reference compound]
4: O=C(O)[C@@H]1[C@@H]2CC[C@@]1(C(=O)Nc1ccc(S(=O)(=O)Nc3nccs3)cc1)C2 (relative stereo) [Compound 32]
5: O=C(NC1CCN(CCCCC2(C(=O)NCC(F)(F)F)c3ccccc3-c3ccccc32)CC1)[C@@H]1[C@H]2C[C@]1(c1ccc(C(F)(F)F)cc1)CO2 (relative stereo) [Compound 35]
List by increasing D (partition ratio), incubation 1. Would you mind listing the labels in the order requested?
4, 3, 1, 5, 2

* * *

Assay: Kinetic solubility in phosphate-buffered saline, pH 7.4
Format: physicochemical
Details: phosphate-buffered saline, 25 °C, pH 7.4, aqueous buffer, kinetic from dmso stock, Table S1; incubation 2; read-out: PBS solubility, pH 7.4, Incubation 2
property_measured: solubility at 2 h (µM)

| molecule | unit_abbreviation | experimental_result |
| --- | --- | --- |
| O=C(O)c1ccccc1C(=O)Nc1ccc(S(=O)(=O)Nc2nccs2)cc1 [Phthalylsulfathiazole, reference compound] | µM | 171 |
| O=C(NC1CCN(CCCCC2(C(=O)NCC(F)(F)F)c3ccccc3-c3ccccc32)CC1)[C@@H]1[C@H]2C[C@]1(c1ccc(C(F)(F)F)cc1)CO2 (relative stereo) [Compound 35] | µM | 4 |

A: O=C(N[C@@H]1[C@H]2C[C@]1(c1ccc(Cl)cc1)CO2)c1cccnc1Cl (relative stereo) [Compound 31]
B: O=C(NC1CCN(CCCCC2(C(=O)NCC(F)(F)F)c3ccccc3-c3ccccc32)CC1)[C@@H]1[C@@H]2CC[C@@]1(c1ccc(C(F)(F)F)cc1)C2 (relative stereo) [Compound 34]
C: O=C(NC1CCN(CCCCC2(C(=O)NCC(F)(F)F)c3ccccc3-c3ccccc32)CC1)c1ccccc1-c1ccc(C(F)(F)F)cc1 [Lomitapide, reference compound]
D: O=C(O)C1C2CC1(C(=O)Nc1ccc(S(=O)(=O)Nc3nccs3)cc1)CO2 (stereo not shown) [Compound 33]
E: O=C(N[C@@H]1[C@@H]2CC[C@@]1(c1ccc(Cl)cc1)C2)c1cccnc1Cl (relative stereo) [Compound 30]
List by increasing solubility at 2 h. Would you mind listing the labels in the order requested?
B, C, E, D, A
(B: 2 µM, C: 3 µM, E: 18 µM, D: 102 µM, A: 157 µM)
